Reference source for all entries: the supplement of paper PMC9170038

Test system: MS2 coat protein
Assay: apparent KD of MS2 coat protein; designed switch direction (-1 OFF switch, 1 ON switch): -1; higher = weaker reporter binding
Settings: Eterna round: R95; input ligand: none
Outcome label depends on apparent KD of MS2 coat protein relative to 30 nM: at/above gives True, below gives False.

sequence_code	category
AGAAAGGAAGGAUAUACAAGAAAGCCGGGCAACGUCUCAGAACAUGAGGAUCACCCAUGUAGAAGGUCCAGGAA [Tisoiste] (puzzle: Exclusion 2)	True
CUGGUCCGAGGAUAUAUGAUGUGAAACAUGAGGAUCACCCAUGUAAUAUUAUGGAUGAAAAUAGAAGGCGGACUAG [Mat - Exclusion 5 - JL mod - D37] (puzzle: Exclusion 5)	True
UUUAAUUUUUUUUUUUUACAAGCUUUUUGCUCGUCUUAUACAUGAGGAUCACCCAUGUGGAUGGGAAAUGAAUUAUC [JMF 97] (puzzle: Sensor v3, turn-off variant 2)	False

Field: next sequence
Kindly determine if apparent KD of MS2 coat protein recorded for CUUAGACAUGAGGAUCACCCAUGUGAGGAUAUGAUGCGAAUAAGGAAGGAAGAAAGCAUCAGAAGGCACAUAUG [Mat - Mod of Hyphema D25] (puzzle: Exclusion 1) is above or exactly 30 nM.
True

====

System: MS2 coat protein
Assay: apparent KD of MS2 coat protein, switch OFF state (with FMN for OFF switches, without FMN for ON switches); designed switch direction (-1 OFF switch, 1 ON switch): -1; higher = weaker reporter binding
Conditions: FMN input: 0 or 200 uM; Eterna round: R93 (includes R88 designs)
As shown below, each of these sequences has a reported apparent KD of MS2 coat protein value.
Numeric answer plus unit only.

# count of solved cases: 5
sequence_code	apparent KD of MS2 coat protein
AGCUAGUCAGGAUAUACGGACAUGUCAGGAGACGUGAAGGGACAUGAGGAUCACCCAUGUAGAAGGGACUAGCG [74%, Web mod - With 4 more G's]	0.106 µM
AGUUGGCGAGGAUAUACAUGAGGAUCACCCAUGUAAAAUAAAUAAAAAAAGGGAGAAAGUAGAAGGCGCUGACA [73%, Moding Norbert Elias, 12]	0.193 µM
AACUGACAUGAGGAUCACCCAUGUCAGGAUAUGACUUGAAAAAUAAAAUAAAAACAUGUCAGAAGGGACAUGGG [Design 54 :P Sub-opt H]	0.0189 µM
AAAUCAGUAGGAUAUACGAUUUGGUACUAGACCGAGGAACCACAUGAGGAUCACCCAUGUAGAAGGACUAGAUA [EX2 Malc#21]	0.0129 µM
AAAAGCAGAGGAUAUACAUAAUUAUGACGAAAGUCAUAAAAACAUGAGGAUCACCCAUGUAGAAGGCUGCAAAA [MOD of Meechl's MS2 Ex2 (MS2 riboswitches - Exlclusion 2)]	0.0281 µM

Under MS2 coat protein: apparent KD of MS2 coat protein value of AGGAAACAUGAGGAUCACCCAUGUCAGGAUAUAGAAAAGAAAAGAAAAGAAAGAAGAACUAGAAGGGACAAGAA [Scorpion I] ?
0.0263 µM

====

As shown below, each of these sequences has a reported apparent KD of MS2 coat protein value.
Test system: MS2 coat protein
Assay: apparent KD of MS2 coat protein; designed switch direction (-1 OFF switch, 1 ON switch): 1; higher = weaker reporter binding
Conditions: input ligand: none
Only the number, expressed in nM, is required.

May I ask what apparent KD of MS2 coat protein has been recorded for GGAAACUUGAGAGGAUAUGUAGAGGAUCACCCUACAGAAGGCUCUUUUGAGAGGAUAUGUAGAGGAUCACCCUACAGAAGGCUC [pwkr ssNG DX.14] (Eterna round: R96, puzzle: Same State NG 1) ?
87

May I ask what apparent KD of MS2 coat protein has been recorded for CGUCGUUUGGUAGGAUAUCGCUAUACAUGAGGAUCACCCAUGUUUACCACGCUGGUUUUUCAUACCGAGAAGGAUUCUGAUGUU [salish99_SSNG02_r04_017] (Eterna round: R96, puzzle: Same State NG 2) ?
19.8

May I ask what apparent KD of MS2 coat protein has been recorded for AUUGCUUACGCAGGAUAUGAUGCGAAAAUUGCGUCAGAAGGGUGAAGUGACUCGUUGCAACAGGACAUGAGGAUCACCCAUGUC [SameState NG1 #91] (Eterna round: R96, puzzle: Same State NG 1) ?
141

May I ask what apparent KD of MS2 coat protein has been recorded for GUAAUACAUGAGGAUCACCCAUGUCAAUGUAGUCGAGGAUAUGGGUAGCUAUGAGGCUUACUAGAAGGCGACGAGC [Same State 1 - Mod of Vinnie Teenbexe v.5] (Eterna round: R96, puzzle: Same State 1) ?
249

====

Tested on: MS2 coat protein
Test: apparent KD of MS2 coat protein; designed switch direction (-1 OFF switch, 1 ON switch): -1; higher = weaker reporter binding
Conditions: Eterna round: R95; input ligand: microRNA oligo, concentration not stated
metric_name: apparent KD of MS2 coat protein

# count of solved cases: 10
sequence_code	apparent KD of MS2 coat protein
AGACAGUCAGGAUAUACAUGAGGAUCACCCAUGUUAAGAAAAGAAAGGGCAGGAAGAGGUAGAAGGGACAAGAA [JR_Exclu3_Sub032] (puzzle: Exclusion 3)	28.5 nM
GUGUGCAGAGGAUAUACAGAGGAAAAUAAUAAAUAAUAUUGACAUGAGGAUCACCCAUGUAGAAGGCUGAGUGU [Excluse me!! 25 - Jieux - Exclusion 2] (puzzle: Exclusion 2)	37.4 nM
GACCCAAGUGUUAGGAUAUCCAGUCGUGGGACCAGGGAGAAGGAACAUGAGGAUCACCCAUGUAAAAUAGAAAC [Anti] (puzzle: Brourd's mod of Exclusion 4)	22.3 nM
AAGAAACAUGAGGAUCACCCAUGUGAGGAUAUGAUGAAGAAAAGAAAAGAAAGAAGAUUCAGAAGGCACAAAGG [salish99-ex1_r3_055] (puzzle: Exclusion 1)	48.9 nM
GCAUUGAGUGUGAGGAUAUGCUGGUCGUAAGAUCAGCAGAAGGCACAUGAGGAUCACCCAUGUGAAAACAAUGC [Mat - Exclusion 4 - JL Mod - D67] (puzzle: Brourd's mod of Exclusion 4)	23 nM
GUAUAUAGUGUGAGGAUAUGCUGGUCCUUGGAUCAGCAGAAGGCACAUGAGGAUCACCCAUGUAGUUUAUUUUA [Mat - Exclusion 4 - JL Mod - D3] (puzzle: Brourd's mod of Exclusion 4)	25.8 nM
UGUACUAACACGGAAGUGUUAGUACUAUAAGCUUGUGUUACAUGAGGAUCACCCAUGUCCUCAUAAGCUCGUCUUAA [Mat - Sensor v3 - Turn-off var 2 - D73] (puzzle: Sensor v3, turn-off variant 2)	198 nM
UUGCUCCCUUAGUACUCUACAAGUUUUUUGUUCGUUUUAACAUGAGGAUCACCCAUGUCUAGUGGAUCUGAUCGGGU [JL ViennaUCT Isreen mod 5] (puzzle: Sensor v3, turn-off variant 2)	336 nM
AGUACUAACACGCAUGUGUUAGUACAAUAAGCUUGUGAAACAUGAGGAUCACCCAUGUCCUCAUAAGCUCGUCUUAU [salish99_TOv2_r3_068] (puzzle: Sensor v3, turn-off variant 2)	411 nM
GGUGGACAUGAGGAUCACCCAUGUGAGGAUAUCGGCUGGCUACUGGCUGACGGCUGCUCGAGAAGGCGCAUUGU [Exclusion 1 V87] (puzzle: Exclusion 1)	38.4 nM

May I ask what apparent KD of MS2 coat protein has been recorded for GAGUGACAUGAGGAUCACCCAUGUGAGGAUAUCGGACGGACCAAGUUAACAUCCGCCGCGAGAAGGCACAUCGG [Exclusion 1 V23] (puzzle: Exclusion 1) ?
104 nM

May I ask what apparent KD of MS2 coat protein has been recorded for ACAAGCUCUUUGCAUCUUAGUUUUGUUGCUUCGUAUGUAACAUGAGGAUCACCCAUGUAAGACUGAUGUCGUCUUUU [JR_SV3TOV2_Sub087] (puzzle: Sensor v3, turn-off variant 2) ?
30 nM

May I ask what apparent KD of MS2 coat protein has been recorded for GAUUAUGCAAGCUUUCGGGACAUGAGGAUCACCCAUGUUCGUCUUAUUGAUCUAGGUACGCUGACGUACCUAGAUCU [JL-sv1-2.33 Brourd mod] (puzzle: Sensor v3, turn-off variant 1) ?
65.2 nM

May I ask what apparent KD of MS2 coat protein has been recorded for CUGGGCCGAGGAUAUAUUAUGUGAAACAUGAGGAUCACCCAUGUAAUAUGAUGGAUGUAAAUAGAAGGCGGUCUAG [Mat - Exclusion 5 - JL mod - D27] (puzzle: Exclusion 5) ?
17.4 nM

May I ask what apparent KD of MS2 coat protein has been recorded for AAGAAACGAGGAUAUACAAUUGAGUGAGAGAGGGAAGUGUGACAUGAGGAUCACCCAUGUAGAAGGCGUAAGAG [JR_Exclu2_Sub085] (puzzle: Exclusion 2) ?
79.5 nM

May I ask what apparent KD of MS2 coat protein has been recorded for UUUAUAAUUUCAAUCUUCGCCAACAAACUUACGCUGGCCACAUGAGGAUCACCCAUGUUUUUUGUUCGUUUUAUUCU [Veorenxere] (puzzle: Sensor v3, turn-off variant 2) ?
56.4 nM

May I ask what apparent KD of MS2 coat protein has been recorded for AGUUGGCGAGGAUAUACAUGAGGAUCACCCAUGUGAGAGAUACUAGUGAGGUCGAUUAGUAGAAGGCGCUGACG [Mat - Exclusion 3 - Mod of JL D76] (puzzle: Exclusion 3) ?
25.3 nM

May I ask what apparent KD of MS2 coat protein has been recorded for AAUACCCGAGGAUAUCUAAUUCGGCACAUGAGGAUCACCCAUGUGAUCUGACCUAGCCGAGGAGAAGGCGGGUCAG [Errizabe] (puzzle: Exclusion 5) ?
12.9 nM

May I ask what apparent KD of MS2 coat protein has been recorded for GGGCUUCAAGUGAGGAUAUCUACGCAGUUGAAGCGAGAGAAGGCACAUGAGGAUCACCCAUGUAUAGAAGAAGA [Rausmausis] (puzzle: Brourd's mod of Exclusion 4) ?
26.5 nM

May I ask what apparent KD of MS2 coat protein has been recorded for AGUACUAACACGAGAGUGUUAGUACAAUAAGCUUGUGAAACAUGAGGAUCACCCAUGUCCUCAUAAGCUCGUCUUAU [salish99_TOv2_r3_029] (puzzle: Sensor v3, turn-off variant 2) ?
949 nM
